# Target entity: T1, Bbc1, P47068
# T1 sequence (P47068 1-78, looked up): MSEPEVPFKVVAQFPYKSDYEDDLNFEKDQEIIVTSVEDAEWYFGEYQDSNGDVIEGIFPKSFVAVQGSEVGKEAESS
# Test details: SPOT array
# Measurement context: median of control spots 796
Value type: SPOT intensity

VPPVPLPFGIPPFPM = 3

[A] NIKVLLNPKLGKPVK
[B] RVTRKRPREPKSTND
## Input // compare measured SPOT intensity, left A , right B , return larger Record your answer as the label of the chosen record.
## Output B
